Value source: patent US20210403591A1

Measured koff accompanies every entry in the list below.
# TARGET OF ASSAY: T1, recombinant human TfR-1, His-tagged (Sino Biological 11020-H07H) (human, UniProt P02786 89-760)
# T1 construct: bought; His-tagged; also called hTfR1; hTfR-1
# T1 sequence (P02786 89-760 limits assumed): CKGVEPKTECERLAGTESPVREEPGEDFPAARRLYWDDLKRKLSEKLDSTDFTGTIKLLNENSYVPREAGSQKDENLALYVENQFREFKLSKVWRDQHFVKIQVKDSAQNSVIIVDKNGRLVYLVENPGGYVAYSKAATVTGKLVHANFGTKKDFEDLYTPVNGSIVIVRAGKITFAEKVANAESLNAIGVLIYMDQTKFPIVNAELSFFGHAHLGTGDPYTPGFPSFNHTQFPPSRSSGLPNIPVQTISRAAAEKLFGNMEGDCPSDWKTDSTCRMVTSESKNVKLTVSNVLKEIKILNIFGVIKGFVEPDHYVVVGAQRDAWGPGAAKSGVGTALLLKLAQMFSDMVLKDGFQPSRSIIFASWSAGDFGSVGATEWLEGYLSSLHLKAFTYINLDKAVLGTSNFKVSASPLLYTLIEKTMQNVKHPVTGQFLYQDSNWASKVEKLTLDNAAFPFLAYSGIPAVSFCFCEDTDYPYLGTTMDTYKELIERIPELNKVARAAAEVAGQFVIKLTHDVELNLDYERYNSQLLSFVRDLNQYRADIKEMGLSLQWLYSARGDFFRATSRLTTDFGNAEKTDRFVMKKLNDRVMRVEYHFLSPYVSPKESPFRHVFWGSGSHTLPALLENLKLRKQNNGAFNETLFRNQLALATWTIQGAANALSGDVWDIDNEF
# EXPERIMENTAL PROTOCOL: SPR, His-captured TfR1
The reply should contain only the number, in s⁻¹.

Incoming: Quick one: koff for Clone H variant 8 VNAR-hFc (Fc fusion, not shown: a dimerising Fc or GST) ARVDQTPQTITKETGESLTINCVLRDSNCELSSTYWYRKKSGSTNEESISKGGRYVETVNSGSKSFSLRINDLVVEDSGTYRCNVQQFPSRHNGRYWCDVYGGGTAVTVNA ?
Outgoing: 0.000948

Incoming: Recorded koff for Clone H variant 4 VNAR-hFc (Fc fusion, not shown: a dimerising Fc or GST) ARVDQTPQTITKETGESLTINCVLRDSNCELSSTYWYRKKSGSTNEESISKGGRYVETVNSGSKSFSLRINDLVVEDSGTYRCNVQQFPSRFNGRYWCDVYGGGTAVTVNA , please?
Outgoing: 0.00183

Incoming: Need koff of Clone H variant 1 VNAR-hFc (Fc fusion, not shown: a dimerising Fc or GST, also called clone H var) ARVDQTPQTITKETGESLTINCVLRDSNCELSSTYWYRKKSGSTNEESISKGGRYVETVNSGSKSFSLRINDLVVEDSGTYRCNVVQWPSSSNGRYWCDVYGGGTAVTVNA , thanks.
Outgoing: 0.000121
